Test system: NCI-H3122
Experiment: relative viability (nuclei count vs DMSO), 5 days (fraction); higher = more cells survive
Conditions: first compound 0.1 µM
Measured Quantity: relative viability
Reply with just the number.

Please fill in: relative viability reported for Cc1cn(-c2cc(NC(=O)c3ccc(C)c(Nc4nccc(-c5cccnc5)n4)c3)cc(C(F)(F)F)c2)cn1 [Nilotinib] + CC(=O)Nc1cccc(-n2c(=O)n(C3CC3)c(=O)c3c(Nc4ccc(I)cc4F)n(C)c(=O)c(C)c32)c1 [Trametinib] (partner 0.02 µM) = 0.158

Please fill in: relative viability reported for Cc1cn(-c2cc(NC(=O)c3ccc(C)c(Nc4nccc(-c5cccnc5)n4)c3)cc(C(F)(F)F)c2)cn1 [Nilotinib] + Nc1nc2[nH]cc(CCc3ccc(C(=O)N[C@@H](CCC(=O)O)C(=O)O)cc3)c2c(=O)[nH]1 [Pemetrexed] (partner 0.2 µM) = 0.195

Please fill in: relative viability reported for Cc1cn(-c2cc(NC(=O)c3ccc(C)c(Nc4nccc(-c5cccnc5)n4)c3)cc(C(F)(F)F)c2)cn1 [Nilotinib] + N=C(N)NC(=N)NCCc1ccccc1 [Phenformin] (partner 250 µM) = 0.309
